Molecular target: T1, hSTEAP3 fused to GFP (Homo sapiens, UniProt Q658P3)
T1 construct: expressed in transfected cells; host or cells: HEK293
T1 sequence (Q658P3 1-488): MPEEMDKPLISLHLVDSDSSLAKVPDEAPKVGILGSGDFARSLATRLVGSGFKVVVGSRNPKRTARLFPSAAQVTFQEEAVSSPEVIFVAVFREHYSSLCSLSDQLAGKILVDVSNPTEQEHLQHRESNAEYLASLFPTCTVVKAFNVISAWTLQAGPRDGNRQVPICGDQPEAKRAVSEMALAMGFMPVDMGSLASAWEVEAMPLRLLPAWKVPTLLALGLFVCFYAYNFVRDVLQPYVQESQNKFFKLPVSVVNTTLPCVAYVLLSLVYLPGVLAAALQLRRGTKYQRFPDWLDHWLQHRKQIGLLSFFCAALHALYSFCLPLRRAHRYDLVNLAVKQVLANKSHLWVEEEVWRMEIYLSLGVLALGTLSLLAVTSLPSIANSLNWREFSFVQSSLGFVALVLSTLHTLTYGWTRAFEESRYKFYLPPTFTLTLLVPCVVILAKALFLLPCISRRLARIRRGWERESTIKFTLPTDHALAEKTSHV
Assay: Specificity: binding to HEK293 cells transfected with hSTEAP3-GFP
Design: key: Wells with GFP positive cells that bound anti STEAP2 antibodies were scored as positive (+); those that did not bind anti STEAP2 antibodies were scored as negative (−)
Settings: transient transfection, 48 h
endpoint: Binding to hSTEAP3-GFP transfected HEK293 cells

H2M7810N: anti-STEAP2 antibody, HCVR/LCVR SEQ ID NOs 346/354 (antibody, V domains shown) VH: QVQLVESGGGVVQPGRSLRLSCAVSGFTSSTYGMNWVRQAPGKGLEWVAVISYDGSNKYYADSVKGRFTISRDNSKNTLYLQMNSLRPEDTAVYYCARGRYFDLWGRGTLVTVSS VL: DIQMTQSPSTLSASVGDRVTITCRASQIISSWLAWYQQKPGKAPKLLIYKASSLASGVPSRFSGSGSGTEFTLTISSLQPDDFATYYCQQYKSYSYTFGQGTKLEIK; −
